assayed_system: STAT6 (Homo sapiens, UniProt P42226)
Construct: stably transfected HaCaT keratinocyte cell line, which expresses NanoLuc luciferase reporter gene under the transcriptional control of the STAT6 responsive promoter; endogenous in cells; host or cells: HaCaT keratinocyte reporter cell line (stably transfected with a NanoLuc reporter)
Sequence (P42226 whole entry): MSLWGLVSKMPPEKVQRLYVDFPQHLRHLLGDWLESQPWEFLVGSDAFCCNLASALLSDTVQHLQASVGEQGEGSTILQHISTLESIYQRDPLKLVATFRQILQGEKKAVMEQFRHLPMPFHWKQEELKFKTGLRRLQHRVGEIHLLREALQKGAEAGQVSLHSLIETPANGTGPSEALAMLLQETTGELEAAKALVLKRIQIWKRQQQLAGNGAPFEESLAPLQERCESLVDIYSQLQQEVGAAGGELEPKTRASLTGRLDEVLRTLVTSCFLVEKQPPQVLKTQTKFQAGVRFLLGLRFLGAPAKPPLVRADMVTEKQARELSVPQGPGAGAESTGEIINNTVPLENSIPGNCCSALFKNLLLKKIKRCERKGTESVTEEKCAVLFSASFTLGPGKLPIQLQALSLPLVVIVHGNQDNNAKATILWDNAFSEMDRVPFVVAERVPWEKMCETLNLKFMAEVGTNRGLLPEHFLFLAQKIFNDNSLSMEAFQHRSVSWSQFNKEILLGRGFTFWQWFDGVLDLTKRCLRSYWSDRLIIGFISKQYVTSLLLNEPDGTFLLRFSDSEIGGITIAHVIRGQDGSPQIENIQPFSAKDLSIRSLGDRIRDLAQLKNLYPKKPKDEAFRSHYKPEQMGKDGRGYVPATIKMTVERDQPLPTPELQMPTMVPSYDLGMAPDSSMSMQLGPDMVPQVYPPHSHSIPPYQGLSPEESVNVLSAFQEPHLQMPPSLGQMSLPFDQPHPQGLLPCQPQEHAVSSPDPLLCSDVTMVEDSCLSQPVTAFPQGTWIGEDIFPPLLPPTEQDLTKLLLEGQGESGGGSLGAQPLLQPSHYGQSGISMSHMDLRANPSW
experimental_details: STAT6 Reporter Luciferase Assay (IL-13 stimulated HaCaT keratinocyte NanoLuc reporter cells)
Assay type: cell-based
test_conditions: IL-13 stimulated HaCaT STAT6 NanoLuc reporter cells; read-out: Reporter EC50
From the text: Pharmacological measurements of STAT6 transcriptional activity through the IL-13-IL-13 receptor/IL-4 receptor pathway were made with a stably transfected HaCaT keratinocyte cell line, which expresses NanoLuc luciferase reporter gene under the transcriptional control of the STAT6 responsive promoter for IL-13Ra2. The readout of the STAT6 activity utilized Promega Nano-Glo Luciferase assay kit. […]
measurement_kind: EC50 (nM)

[[record]]
compound = "CC(C)n1nc(C(=O)NCc2ccc(NC(=O)N3CCNCC3)cc2Cl)c2c1[C@@H](C)CN(c1ccc(C(=O)N(C)C)cc1)C2"
measurement_kind = "EC50"
quantitative_readout = 9

[[record]]
compound = "CCc1nc(C(=O)NCc2ccc(NC(=O)N(C)C)cc2)c2n1C(C)CN(c1ccc(C(=O)N(C)C)cc1)C2 (single isomer, unassigned) [Example 428]"
measurement_kind = "EC50"
quantitative_readout = 17

[[record]]
compound = "CC(C)n1nc(C(=O)NCc2ccc(NC(=O)C3CCN(C)CC3)c(F)c2)c2c1[C@@H](C)CN(c1ccc(C(=O)N(C)C)cc1)C2"
measurement_kind = "EC50"
quantitative_readout = 12


* * *

assayed_system: STAT6 (Homo sapiens)
Construct: stably transfected HaCaT keratinocyte cell line, which expresses NanoLuc luciferase reporter gene under the transcriptional control of the STAT6 responsive promoter; endogenous in cells; host or cells: HaCaT keratinocyte reporter cell line (stably transfected with a NanoLuc reporter)
experimental_details: STAT6 Reporter Luciferase Assay (IL-13 stimulated HaCaT keratinocyte NanoLuc reporter cells)
Type: cell-based
test_conditions: STAT6 NanoLuc luciferase reporter, IL-13 stimulated HaCaT keratinocyte cells; read-out: Reporter EC50
measurement_kind: EC50 (µM)

[[record]]
molecule = "CC(C)n1nc(C(=O)NCc2ccc(NC(=O)N(C)C)cn2)c2c1C(C(F)(F)F)CN(c1ccc(C(=O)N(C)C)cn1)C2 (racemic)"
assayed_system = "STAT6 (Homo sapiens)"
measurement_kind = "EC50"
quantitative_readout = 0.001

[[record]]
molecule = "CN(C)C(=O)Nc1ccc(CNC(=O)c2nc(C(C)(F)F)n3c2CN(c2ccc(C(=O)N(C)C)cn2)CC3)cc1"
assayed_system = "STAT6 (Homo sapiens)"
measurement_kind = "EC50"
quantitative_readout = 0.009

[[record]]
molecule = "CC(C)n1nc(C(=O)NCc2ccc(NC(=O)N(C)C)cc2)c2c1CCN(c1ccc(C(=O)N3Cc4cccnc4C3)cn1)C2"
assayed_system = "STAT6 (Homo sapiens)"
measurement_kind = "EC50"
quantitative_readout = 0.002

[[record]]
molecule = "CC(C)n1nc(C(=O)NCc2ccc(NC(=O)NCC3COC3)cc2)c2c1CCN(c1ccc(C(=O)N(C)C)cn1)C2"
assayed_system = "STAT6 (Homo sapiens)"
measurement_kind = "EC50"
quantitative_readout = 0.26


(a) CC[C@H]1CCC(=O)N1c1ccc(N2CCc3c(c(C(=O)NCc4ccc(NC(=O)N(C)C)cc4)nn3C(C)C)C2)nc1
(b) CC1CCN(c2ccc(N3CCc4c(c(C(=O)NCc5ccc(NC(=O)N(C)C)cc5)nn4C(C)C)C3)nc2)C1=O (stereo not drawn)
Between a and b , whose recorded EC50 is greater? Please identify the chosen entry by its label.
b
